All values here come from patent US20260242735A1.

# system tested: human CD33 S135A (human, UniProt P20138 18-364)
# Sequence (P20138 18-364 S135A limits assumed): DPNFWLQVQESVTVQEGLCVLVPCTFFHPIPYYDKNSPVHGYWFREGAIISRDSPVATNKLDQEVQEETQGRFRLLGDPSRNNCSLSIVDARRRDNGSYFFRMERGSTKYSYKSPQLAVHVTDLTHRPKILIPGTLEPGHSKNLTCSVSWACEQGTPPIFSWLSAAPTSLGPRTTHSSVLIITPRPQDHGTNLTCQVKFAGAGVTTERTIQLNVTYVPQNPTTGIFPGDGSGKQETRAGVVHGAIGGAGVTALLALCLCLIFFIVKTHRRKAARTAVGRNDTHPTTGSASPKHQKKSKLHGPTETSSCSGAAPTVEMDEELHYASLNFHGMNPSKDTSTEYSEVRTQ
# experiment notes: flow cytometry on HEK293-T, alanine scan
Listed below: Mean % WT Binding values for each entry.
measured endpoint: Mean % WT Binding (% WT binding)

binder="Refmab #4 (antibody, V domains shown, The alanine scan used IgG or Fab) VH: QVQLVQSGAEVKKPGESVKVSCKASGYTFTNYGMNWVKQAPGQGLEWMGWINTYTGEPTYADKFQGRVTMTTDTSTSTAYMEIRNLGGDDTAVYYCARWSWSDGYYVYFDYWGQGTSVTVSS VL: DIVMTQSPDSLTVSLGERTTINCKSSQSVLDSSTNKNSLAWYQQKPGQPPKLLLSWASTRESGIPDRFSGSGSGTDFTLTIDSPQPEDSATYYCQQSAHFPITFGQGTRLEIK" measured_endpoint="Mean % WT Binding" quantity_unit="% WT binding" data_value=109
binder="Refmab #1 (antibody, V domains shown, The alanine scan used IgG or Fab; also called hP67.6) VH: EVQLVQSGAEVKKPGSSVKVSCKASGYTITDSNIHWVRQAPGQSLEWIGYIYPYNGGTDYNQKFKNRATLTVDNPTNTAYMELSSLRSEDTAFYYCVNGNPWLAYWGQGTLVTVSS VL: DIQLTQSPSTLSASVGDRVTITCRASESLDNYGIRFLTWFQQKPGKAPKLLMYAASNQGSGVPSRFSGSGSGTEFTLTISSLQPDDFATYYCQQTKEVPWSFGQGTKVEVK" measured_endpoint="Mean % WT Binding" quantity_unit="% WT binding" data_value=98.6
binder="Refmab #2 (antibody, V domains shown, The alanine scan used IgG or Fab) VH: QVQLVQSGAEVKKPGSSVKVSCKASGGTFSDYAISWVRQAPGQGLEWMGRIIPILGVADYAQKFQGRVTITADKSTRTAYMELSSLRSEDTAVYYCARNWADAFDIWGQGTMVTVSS VL: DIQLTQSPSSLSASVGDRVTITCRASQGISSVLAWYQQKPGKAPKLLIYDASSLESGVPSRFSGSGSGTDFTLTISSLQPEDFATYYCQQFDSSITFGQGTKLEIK" measured_endpoint="Mean % WT Binding" quantity_unit="% WT binding" data_value=120
